What % MALT1 degradation at 1 µM was measured for each of the following?
assay_target: MALT1 (Homo sapiens, UniProt Q9UDY8)
Sequence (Q9UDY8 1-824): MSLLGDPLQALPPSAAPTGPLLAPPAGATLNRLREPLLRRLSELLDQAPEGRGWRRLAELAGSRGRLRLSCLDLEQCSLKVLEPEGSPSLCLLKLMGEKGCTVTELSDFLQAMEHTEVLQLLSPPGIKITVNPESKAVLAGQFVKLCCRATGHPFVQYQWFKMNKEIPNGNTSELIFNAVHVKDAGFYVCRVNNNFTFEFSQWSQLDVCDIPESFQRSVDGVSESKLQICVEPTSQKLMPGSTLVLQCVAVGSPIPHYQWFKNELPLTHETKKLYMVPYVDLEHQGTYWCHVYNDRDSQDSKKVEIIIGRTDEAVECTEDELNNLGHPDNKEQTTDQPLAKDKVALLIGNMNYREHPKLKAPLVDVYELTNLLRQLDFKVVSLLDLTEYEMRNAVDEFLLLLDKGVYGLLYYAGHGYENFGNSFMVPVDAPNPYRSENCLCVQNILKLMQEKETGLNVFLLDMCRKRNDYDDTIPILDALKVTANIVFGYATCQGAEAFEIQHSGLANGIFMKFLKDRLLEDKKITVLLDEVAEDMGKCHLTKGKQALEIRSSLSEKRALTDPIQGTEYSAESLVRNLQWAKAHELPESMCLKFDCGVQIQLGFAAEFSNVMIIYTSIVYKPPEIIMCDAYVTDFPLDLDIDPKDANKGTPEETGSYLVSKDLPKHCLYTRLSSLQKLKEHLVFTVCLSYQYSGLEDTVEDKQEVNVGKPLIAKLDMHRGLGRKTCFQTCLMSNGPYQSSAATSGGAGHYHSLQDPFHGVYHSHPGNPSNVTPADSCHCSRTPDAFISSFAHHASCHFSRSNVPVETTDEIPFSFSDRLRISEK
measurement_protocol: MALT1 degradation assay (Western blot) in OCI-Ly3 cells
Type: cell-based
Design: endogenous in cells; host or cells: OCI-Ly3
recorded_conditions: 48 hours, normalized to Actin, relative to vehicle treated cells, read-out: % MALT1 Degradation at 1 μM

C[C@@H](c1c(NC(=O)Nc2cnc(-n3nccn3)c(Cl)c2)cnc2cc(Cl)nn12)N(C)C(=O)CCOCCOCCOCCN1CCN(Cc2ccc(COc3cccc4c3CN([C@H]3CCC(=O)NC3=O)C4=O)cc2)CC1 [Example 17]; > 50%
CC(C)c1c(NC(=O)Nc2cnc(-n3cc(CNC(=O)CCOCCOCCNc4cccc5c4CN(C4CCC(=O)NC4=O)C5=O)cn3)c(Cl)c2)cnc2cc(Cl)nn12 (stereo not drawn) [Example 7]; 31 to 50%
CO[C@@H](C)c1c(NC(=O)Nc2cnc(-n3cc(CNC(=O)CCOCCOCCOCCOCCNc4cccc5c4C(=O)N(C4CCC(=O)NC4=O)C5=O)cn3)c(Cl)c2)cnc2cc(Cl)nn12 (stereo partly drawn) [Example 2]; > 50%
CO[C@@H](C)c1c(NC(=O)Nc2cnc(-n3cc(CNC(=O)CCOCCOCCNc4cccc5c4CN(C4CCC(=O)NC4=O)C5=O)cn3)c(Cl)c2)cnc2cc(Cl)nn12 (stereo partly drawn) [Example 5]; 10 to 30%
CO[C@@H](C)c1c(NC(=O)Nc2cc(Cl)cnc2OCCNC(=O)CCOCCOCCOCCOCCNc2cccc3c2CN(C2CCC(=O)NC2=O)C3=O)cnc2cc(Cl)nn12 (stereo partly drawn) [Example 11]; > 50%
CO[C@@H](C)c1c(NC(=O)Nc2cc(Cl)cnc2OCCNC(=O)CCOCCOCCNc2cccc3c2C(=O)N(C2CCC(=O)NC2=O)C3=O)cnc2cc(Cl)nn12 (stereo partly drawn) [Example 14]; > 50%
CO[C@@H](C)c1c(NC(=O)Nc2cc(Cl)cnc2OCCNC(=O)CCOCCOCCOCCOCCOCCOCCNc2cccc3c2C(=O)N(C2CCC(=O)NC2=O)C3=O)cnc2cc(Cl)nn12 (stereo partly drawn) [Example 15]; > 50%
CO[C@@H](C)c1c(NC(=O)Nc2cc(Cl)cnc2OCCNC(=O)CCOCCOCCOCCOCCC(=O)N[C@H](C(=O)N2C[C@H](O)CC2C(=O)NCc2ccc(-c3scnc3C)cc2)C(C)(C)C)cnc2cc(Cl)nn12 (stereo partly drawn) [Example 9]; 10 to 30%
CO[C@@H](C)c1c(NC(=O)Nc2cc(Cl)cnc2OCCNC(=O)CCOCCNc2cccc3c2CN(C2CCC(=O)NC2=O)C3=O)cnc2cc(Cl)nn12 (stereo partly drawn) [Example 12]; 31 to 50%
CO[C@@H](C)c1c(NC(=O)Nc2cc(Cl)cnc2OCCNC(=O)CCOCCOCCNc2cccc3c2CN(C2CCC(=O)NC2=O)C3=O)cnc2cc(Cl)nn12 (stereo partly drawn) [Example 6]; > 50%

Each compound below has a recorded value; state its % MALT1 degradation at 1 µM.
1. C[C@@H](c1c(NC(=O)Nc2cnc(-n3nccn3)c(Cl)c2)cnc2cc(Cl)nn12)N(C)C(=O)CCOCCOCCNc1cccc2c1CN(C1CCC(=O)NC1=O)C2=O (stereo partly drawn) [Example 4]
2. C[C@@H](c1c(NC(=O)Nc2cnc(-n3nccn3)c(Cl)c2)cnc2cc(Cl)nn12)N(C)C(=O)CCOCCOCCOCCOCCNc1cccc2c1C(=O)N(C1CCC(=O)NC1=O)C2=O (stereo partly drawn) [Example 1]

A:
31 to 50%
31 to 50%
